Biological target: T1, human FM3 (NMUR1) (human)
T1 chain: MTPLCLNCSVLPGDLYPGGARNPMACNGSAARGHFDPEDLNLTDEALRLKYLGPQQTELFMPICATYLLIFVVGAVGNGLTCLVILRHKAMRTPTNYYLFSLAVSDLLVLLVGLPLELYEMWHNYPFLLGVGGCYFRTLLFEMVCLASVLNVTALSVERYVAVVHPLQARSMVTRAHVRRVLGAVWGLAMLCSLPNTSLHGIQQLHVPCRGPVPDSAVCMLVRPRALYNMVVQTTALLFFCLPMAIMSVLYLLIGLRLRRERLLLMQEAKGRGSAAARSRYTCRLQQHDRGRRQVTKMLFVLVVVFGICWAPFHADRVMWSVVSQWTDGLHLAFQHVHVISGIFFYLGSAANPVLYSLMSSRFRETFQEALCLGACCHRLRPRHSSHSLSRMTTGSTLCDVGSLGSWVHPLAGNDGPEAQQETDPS
Assay: competition with 125I-NMU8, human FM3/CHO membrane fraction, filter binding
Primed or numbered codes have the meaning given here. Where no end group is shown, it is not given here. AMBz = omega-aminocarboxylic acid linker (structure only drawn); AU″ = omega-aminocarboxylic acid linker (structure only drawn); ACP = omega-aminocarboxylic acid linker
quantity.name: IC50 (nM)

Example entries begin here.
- binder: "{PEG 30 kDa-ACP}-YFLFRPRN-NH2 (also: PEG-aldehyde bound by reductive amination (NH linkage)) [PEG30k(NH-ACP)-NMU-8]"
  IC50 (nM): 7.3
- binder: "YFLFRPRN-NH2 [NMU-8]"
  IC50 (nM): 0.19
- binder: "{(PEG20k)2-ACP}-YFLFRPRN-NH2 [(PEG20k)2(ACP)-NMU-8]"
  IC50 (nM): 280

(1) {PEG 30 kDa-AU″}-YFLFRPRN-NH2 [PEG30k(NH-AU)-NMU-8]
(2) {(PEG20k)2-AMBz}-YFLFRPRN-NH2 [(PEG20k)2(AMBz)-NMU-8]
Could you point out whether the larger IC50 belongs to 1 or to 2 ? Bench note: the answer is the label of the chosen record. 2

Attribution: patent US20100286035A1
